Molecular target: human GLP-1 receptor (human, UniProt P43220 24-463)
Assay: cell-based or functional assay
Where no end group is shown, it is not given here. [ ]: non-standard residue; d: D form. Bip(2'-Et-4'-OMe) = CCc1cc(OC)ccc1-c1ccc(C[C@H](N)C(=O)O)cc1; αMePhe(2-F) = C[C@](N)(Cc1ccccc1F)C(=O)O; αMeBip(OMe) = alpha-methylated Bip(OMe); hhPhe = N[C@@H](CCCc1ccccc1)C(=O)O; αMeD = C[C@](N)(CC(=O)O)C(=O)O; αMeP = C[C@@]1(C(=O)O)CCCN1; αMeAPPA = not defined here; αMeS = C[C@](N)(CO)C(=O)O; Aib = CC(C)(N)C(=O)O
Value type: cAMP release, % activity with respect to control, at 1 µM

Study these solved cases before continuing.
Request the reported cAMP release, % activity with respect to control, at 1 µM associated with VHAQGTFT[αMeS]D[αMeBip(OMe)][hhPhe]-NH2 [Seq. ID. No. 34]
99 % of control

Entry to check: VH[αMeP]QGTFTSD[Bip(2'-Et-4'-OMe)][αMeAPPA] (not fully specified (C-terminus); printed as VH-(αMe-Pro)-QGTFTSD-Bip(OMe)-(αMe-APPA); reading uncertain) [Seq. ID. No. 84]
95 % of control

Could you do the same for VHAQGT[αMePhe(2-F)]TSD[αMeBip(OMe)][hhPhe] (not fully specified (C-terminus); printed as VHAQGT-(αMe-2FPhe)-TSD-(αMe-Bip(OMe))-(APPA)) [Seq. ID. No. 18] , please?
99 % of control

# evaluate next
What value of measured cAMP release, % activity with respect to control, at 1 µM is listed for VH[Aib]EGTFTS[αMeD][αMeBip(OMe)][αMeAPPA] (not fully specified (C-terminus); printed as VH-Aib-EGTFTS-(αMe-Asp)-(αMe-Bip(OMe))-(αMe-APPA); reading uncertain) [Seq. ID. No. 187] ?
99 % of control
